Reported Ki for target or system α-chymotrypsin (Bos taurus, UniProt P00766), by entry.

Check out these entries, answers already filled in.
compound: COc1ccc(CCOc2cccc(NC(=O)CC(=O)Nc3cccc(C(=N)N)c3)c2)cc1 [Compound 20b]
Ki: > 50 µM
//
compound: N=C(N)c1cccc(NC(=O)CC(=O)N2CCC(Oc3ccc(F)cc3F)CC2)c1 [Compound 22b]
Ki: > 50 µM
//
compound: N=C(N)c1cccc(NC(=O)CC(=O)Nc2ccc(OC3CCNCC3)cc2)c1 [Compound 23a]
Ki: > 50 µM
//
compound: N=C(N)c1cccc(NC(=O)CC(=O)NCc2ccc(-c3ccc(F)cc3F)cc2)c1 [Compound 19h]
Ki: > 50 µM
//
compound: N=C(N)c1cccc(NC(=O)CC(=O)NCc2ccc(-c3cccc(F)c3)cc2)c1 [Compound 19f]
Ki: 26.5 µM
//
compound: CC(C)N1CCC(Oc2ccc(NC(=O)CC(=O)Nc3cccc(C(=N)N)c3)cc2)CC1 [Compound 23b]
Ki: > 50 µM
//
compound: N=C(N)c1cccc(NC(=O)CC(=O)NCc2ccc(-c3ccccc3F)cc2)c1 [Compound 19e]
Ki: > 50 µM
//
compound: N=C(N)c1cccc(NC(=O)CC(=O)NCc2ccc(-c3ccc(F)cc3)cc2)c1 [Compound 19g]
Ki: > 50 µM
//
compound: CC(C)(C(=O)NCc1ccc(-c2ccc(F)cc2F)cc1)C(=O)Nc1cccc(C(=N)N)c1 [Compound 19l]
Ki: > 50 µM
//
compound: N=C(N)c1cccc(NC(=O)CNC(=O)Cc2ccc(-c3ccc(F)cc3F)cc2)c1 [Compound 4c]
Ki: 35 µM

[Q] Name the recorded Ki of N=C(N)c1cccc(NC(=O)CC(=O)N2CCN(c3ccc(F)cc3)CC2)c1 [Compound 21a] , assay system α-chymotrypsin (Bos taurus, UniProt P00766).
[A] > 50 µM

[Q] Name the recorded Ki of N=C(N)c1cccc(NC(=O)CC(=O)N2CCC(Oc3ccc(F)c(F)c3)CC2)c1 [Compound 22c] , assay system α-chymotrypsin (Bos taurus, UniProt P00766).
[A] > 50 µM

[Q] Name the recorded Ki of N=C(N)c1cccc(NC(=O)CC(=O)NCc2ccc(-c3ccccc3)cc2)c1 [Compound 19d] , assay system α-chymotrypsin (Bos taurus, UniProt P00766).
[A] 4.3 µM

[Q] Name the recorded Ki of N=C(N)c1cccc(NC(=O)CC(=O)NCc2ccc(-c3cc(F)cc(F)c3)cc2)c1 [Compound 19i] , assay system α-chymotrypsin (Bos taurus, UniProt P00766).
[A] 30.2 µM

[Q] Name the recorded Ki of N=C(N)c1cccc(NC(=O)CC(=O)N2CCC(Oc3ccc(F)cc3)CC2)c1 [Compound 22a] , assay system α-chymotrypsin (Bos taurus, UniProt P00766).
[A] > 50 µM

[Q] Name the recorded Ki of N=C(N)c1cccc(NC(=O)CC(=O)Nc2cccc(OCCc3ccc(F)cc3)c2)c1 [Compound 20a] , assay system α-chymotrypsin (Bos taurus, UniProt P00766).
[A] > 50 µM
